Data credit: the supplement of paper PMC9170038

Tested on: MS2 coat protein
procedure-summary: apparent KD of MS2 coat protein; designed switch direction (-1 OFF switch, 1 ON switch): 1; higher = weaker reporter binding
condition-label: Eterna round: R95; input ligand: microRNA oligo, concentration not stated
reported-property: apparent KD of MS2 coat protein (nM)

• AGUGAACAUGAGGAUCACCCAUGUGAGAGAAGUGUAGGAUAUGUGAGGAGCAGAGGAGGAACAGAAGGACAUGGAG [JR_SS!_Sub073] (puzzle: Same State 1) = 36.8
• UAGAAACAUGAGGAUCACCCAUGUGGGUUAAACACAGGAUAUCAUGCCACACGAUAGGUAUGAGAAGGGUGACCGU [Sodion] (puzzle: Same State 1) = 79.5
• CGUCCAGCCUGAGCUGGACAAAAGCAUGUACAUGAGGAUCACCCAUGUUCAUGUACAAGCUUUUUGCUCGUCUUACC [salish99_208a_r3_094x] (puzzle: Sensor for hsa-mir-208a) = 15.9
• CGUCCGGCCUGUGCUGGCCGGUGGCUUGUACAUGAGGAUCACCCAUGUUCUUGUGCUGGCGUUUUGCUCGUCUUGUG [salish99_mir208a_r3_020] (puzzle: Sensor for hsa-mir-208a) = 20.7
• GGGCCAGCCUGUGCUGGGCUUUAGCAUGUACAUGAGGAUCACCCAUGUCGUGUACAUGCUUUUUGCUCGUCUUUAAA [Photon Torp-07] (puzzle: Sensor for hsa-mir-208a) = 22.5
• GUGGUGUAGAUACAGGAUAUGUUGCUCGUAACAUGAGGAUCACCCAUGUAUCUAUGAGAUUAAAUGCAGAAGGGUGCACACCACA [Mat - Same State 2 - Mod of UCT - D72] (puzzle: Same State 2) = 460
• CAGUGCUGUUGAGAGGAUAUGCGGUGAUGGACAUGAGGAUCACCCAUGUUAGCGACAGCGUUACGGCAGAAGGCUCUACCCACUG [Soteed Omei mod 48] (puzzle: Same State 2) = 39.1
• UCUUGGUUUUUGCUCGUUUUUUGUGUUGAACAUGAGGAUCACCCAUGUAUUGUACGAUCCAAUUUGAUAAUGGUCCG [JMF 61] (puzzle: Sensor for hsa-mir-208a) = 34.4
• CCGUUGAUGGGACAGGAUAUGACUGUCGUCACAUGAGGAUCACCCAUGUCCCGGCAAUGCCACCGUUAGAAGGGUCCCGUCUCGG [Edraedbibe] (puzzle: Same State 2) = 12
• AGCUAUCGAAAACGAUAGCAAAAGCAUGUACAUGAGGAUCACCCAUGUCAUGUACAGGCUUUUUGCUCGUCUUAAAA [Zipper 23 - 8] (puzzle: Sensor for hsa-mir-208a) = 18.3

* * *

System: MS2 coat protein
procedure-summary: apparent KD of MS2 coat protein; designed switch direction (-1 OFF switch, 1 ON switch): -1; higher = weaker reporter binding
condition-label: input ligand: microRNA oligo, concentration not stated
Here the recorded apparent KD of MS2 coat protein is given for each entry.
reported-property: apparent KD of MS2 coat protein

• AGAUCUAGGACAGGAUAUAUAGAUGGCUUCAUCGAAGAUGAAGCCAUUACAUGAGGAUCACCCAUGUAGAAGGGUCCUAGAUCA [Omei Exc(NG) 2Av7] (Eterna round: R96, puzzle: Exclusion NG 2) = 14.3 nM
• CCGGAAAUACAGGAUAUAGGAGUCAAUAGACUCCUAGAAGGGUAUACAUGAGGAUCACCCAUGUGUCCUACCGG [Fiskers Ex 6 - 66] (Eterna round: R96, puzzle: Exclusion 6) = 23.3 nM
• UUUUGGCAUGUAGGAUAUGGGUCCGAUUAGGAUUUAGAAGGACAUGAGGAUCACCCAUGUGCAUUUAAUUGGUCUUUUUUUUUU [EXclNG1-LROPPY15] (Eterna round: R96, puzzle: Exclusion NG 1) = 80 nM
